- Tested on: Alopecurus myosuroides (ALOMY)
- testDescription: Test 1 glasshouse assay, post-emergence herbicidal activity
- Format: in vivo
- experimentalContext: 312 h, post-emergence (Example 1B Table 2), 62.5 g/ha, after 13 days, read-out: Percentage phytotoxicity ALOMY
For each of the compounds below, state its pest or weed control at 62.5 g/ha.
# number only, unit % dropped from output

Problem: Any idea what pest or weed control at 62.5 g/ha came out for C#CCC1CC(=O)C(c2c(C)cc(C#C)cc2C)C1=O (stereo not shown) on Alopecurus myosuroides (ALOMY)?
Solution: 90

Problem: Hello, I am looking for reported pest or weed control at 62.5 g/ha with Alopecurus myosuroides (ALOMY) for C#CCC1CC(=O)C(c2c(Cl)cccc2Cl)C1=O (stereo not shown) . Could you help?
Solution: 60

Problem: Tell me reported pest or weed control at 62.5 g/ha for C#CCC1CC(=O)C(c2c(C)cc(C)cc2C)C1=O (stereo not shown) , tested with Alopecurus myosuroides (ALOMY).
Solution: 90

Problem: Any idea what pest or weed control at 62.5 g/ha came out for C#CCC1CC(=O)C(c2c(C)cc(-c3ccc(Cl)cn3)cc2C)C1=O (stereo not shown) on Alopecurus myosuroides (ALOMY)?
Solution: 70

Problem: Missing value: pest or weed control at 62.5 g/ha, Alopecurus myosuroides (ALOMY), entry C#CCC1CC(=O)C(c2c(F)cc(-c3ccc(Cl)cn3)cc2Cl)C1=O (stereo not shown) . Fill in?
Solution: 80

Problem: Checklist item: pest or weed control at 62.5 g/ha tested on Alopecurus myosuroides (ALOMY), entry C#Cc1cc(C)c(C2C(=O)CC(CC#CC)C2=O)c(C)c1 (stereo not shown) , value?
Solution: 70

Problem: // map C#CCC1CC(=O)C(c2c(Cl)cc(-c3ccc(F)cc3F)cc2OC)C1=O (stereo not shown) to recorded pest or weed control at 62.5 g/ha (system: Alopecurus myosuroides (ALOMY))
Solution: 60

Problem: Query for Alopecurus myosuroides (ALOMY): what pest or weed control at 62.5 g/ha does the record show for C#CCC1CC(=O)C(c2c(Cl)cc(-c3ccc(Cl)cn3)cc2OC)C1=O (stereo not shown) ?
Solution: 100

Problem: Give recorded pest or weed control at 62.5 g/ha with Alopecurus myosuroides (ALOMY) for the following compound: C#CCC1CC(=O)C(c2c(C)cc(-c3ncc(Cl)cc3F)cc2C)C1=O (stereo not shown)
Solution: 100

Problem: What value of pest or weed control at 62.5 g/ha on Alopecurus myosuroides (ALOMY) does C#CCC1CC(=O)C(c2c(C)cc(-c3ncc(Cl)cn3)cc2C)C1=O (stereo not shown) have?
Solution: 90

Problem: Param readout = pest or weed control at 62.5 g/ha; param system = Alopecurus myosuroides (ALOMY); param query = CC#CCC1CC(=O)C(c2c(C)cc(C)cc2C)C1=O (stereo not shown) ; response: value
Solution: 60

Problem: Query the reported pest or weed control at 62.5 g/ha for Alopecurus myosuroides (ALOMY); item: C#CCC1CC(=O)C(c2c(CC)cc(C)cc2CC)C1=O (stereo not shown)
Solution: 90

Problem: Entry C#CCC1CC(=O)C(c2c(Cl)cc(-c3ccc(F)c(F)c3)cc2OC)C1=O (stereo not shown) , system Alopecurus myosuroides (ALOMY): what pest or weed control at 62.5 g/ha was measured?
Solution: 100
